biological target: LXRβ (Homo sapiens (Human), UniProt P55055); assay: In vitro assay LXRβ: PathHunter NHR CHO cells, LXRβ / Steroid Receptor Co-activator Peptide enzyme fragment complementation; assay type: cell-based; conditions: PathHunter NHR CHO cells, full-length human LXRβ and SRCP, chemiluminescent signal; read-out: LXRβ PPI
Sequence (P55055 whole entry, the tested form may be a part): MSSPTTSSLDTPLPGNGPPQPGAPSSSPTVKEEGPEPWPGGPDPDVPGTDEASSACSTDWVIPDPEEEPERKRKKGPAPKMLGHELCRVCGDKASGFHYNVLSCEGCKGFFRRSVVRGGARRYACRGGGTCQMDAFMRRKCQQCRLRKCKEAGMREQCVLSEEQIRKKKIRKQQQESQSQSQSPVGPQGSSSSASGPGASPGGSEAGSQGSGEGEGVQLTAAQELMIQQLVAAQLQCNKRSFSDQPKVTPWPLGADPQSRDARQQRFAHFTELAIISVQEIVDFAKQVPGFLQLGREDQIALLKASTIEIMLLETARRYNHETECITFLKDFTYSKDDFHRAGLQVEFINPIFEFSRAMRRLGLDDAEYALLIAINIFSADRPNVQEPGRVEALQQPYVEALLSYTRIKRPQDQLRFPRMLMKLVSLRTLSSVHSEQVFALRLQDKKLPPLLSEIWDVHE
pEC50: −log10 of the molar value.
Readings of pEC50 for the listed compounds
measuredMetric: pEC50

>>> df
                                 chemsmiles  measuredmetric  experimentalresult
0  C[C@H](CCC(=O)N1CCN(C(=O)c2cnn(C)c2)CC1)[C@H]1CC[C@H]2[C@@H]3CC=C4C[C@@H](O)CC[C@]4(C)[C@H]3CC[C@]12C           pEC50              < 5.00
1  C[C@H](CCC(=O)N1CCS(=O)(=O)[C@H](C)C1)[C@H]1CC[C@H]2[C@@H]3CC=C4C[C@@H](O)CC[C@]4(C)[C@H]3CC[C@]12C           pEC50              < 5.00
2  Cc1nccc(N2CCN(C(=O)CC[C@@H](C)[C@H]3CC[C@H]4[C@@H]5CC=C6C[C@@H](O)CC[C@]6(C)[C@H]5CC[C@]34C)[C@@H](C)C2)n1           pEC50              < 5.00

====

target: LXRβ (Homo sapiens (Human), UniProt P55055); assay: In vitro assay LXRβ: PathHunter NHR CHO cells, LXRβ / Steroid Receptor Co-activator Peptide enzyme fragment complementation; format: cell-based; conditions: PathHunter NHR CHO cells, full-length human LXRβ and SRCP, chemiluminescent signal; read-out: LXRβ PPI
Readings of EC50 for the listed compounds
measuredMetric: EC50

>>> print(df.to_string())
                                 chemsmiles  experimentalresult
0  COCCON(C)C(=O)CC[C@@H](C)[C@H]1CC[C@H]2[C@@H]3CC=C4C[C@@H](O)CC[C@]4(C)[C@H]3CC[C@]12C          1 to 10 µM
1  Cc1cc(CC[C@@H](C)[C@H]2CC[C@H]3[C@@H]4CC=C5C[C@@H](O)CC[C@]5(C)[C@H]4CC[C@]23C)ncn1          1 to 10 µM
2  CON(C(=O)CC[C@@H](C)[C@H]1CC[C@H]2[C@@H]3CC=C4C[C@@H](O)CC[C@]4(C)[C@H]3CC[C@]12C)C(C)C          1 to 10 µM
3  C[C@H](CCC(=O)N1CCN(c2ccnc(N)n2)CC1)[C@H]1CC[C@H]2[C@@H]3CC=C4C[C@@H](O)CC[C@]4(C)[C@H]3CC[C@]12C             > 10 µM
4  C[C@H](COc1cc(CO)ccn1)[C@H]1CC[C@H]2[C@@H]3CC=C4C[C@@H](O)CC[C@]4(C)[C@H]3CC[C@]12C             > 10 µM
5  Cc1cccc(OC[C@@H](C)[C@H]2CC[C@H]3[C@@H]4CC=C5C[C@@H](O)CC[C@]5(C)[C@H]4CC[C@]23C)n1             > 10 µM

====

molecular target: SREBP-2 (Homo sapiens (Human)); test: In vitro assay SREBP-2: PathHunter U2OS SREBP-2 Nuclear Translocation Cell Line, U18666A-stimulated; format: cell-based; details: PathHunter U2OS SREBP-2 nuclear translocation cells, U18666A 10 μM, overnight (16 hours)
measuredMetric: IC50

>>> print(df.to_string())
                                    compound  experimentalresult
 0  Cc1cccnc1OC[C@@H](C)[C@H]1CC[C@H]2[C@@H]3CC=C4C[C@@H](O)CC[C@]4(C)[C@H]3CC[C@]12C [Example 261]            < 250 nM
 1  Cc1cccc(OC[C@@H](C)[C@H]2CC[C@H]3[C@@H]4CC=C5C[C@@H](O)CC[C@]5(C)[C@H]4CC[C@]23C)n1 [Example 440]      250 to 1000 nM
 2  C[C@H](CCC(=O)N1CCN(C(=O)N2CCC[C@@H]2C)CC1)[C@H]1CC[C@H]2[C@@H]3CC=C4C[C@@H](O)CC[C@]4(C)[C@H]3CC[C@]12C [Example 666]            < 250 nM
 3  COc1cncnc1N1CCN(C(=O)CC[C@@H](C)[C@H]2CC[C@H]3[C@@H]4CC=C5C[C@@H](O)CC[C@]5(C)[C@H]4CC[C@]23C)C[C@@H]1C [Example 615]            < 250 nM
 4  Cc1cccnc1CC[C@@H](C)[C@H]1CC[C@H]2[C@@H]3CC=C4C[C@@H](O)CC[C@]4(C)[C@H]3CC[C@]12C [Example 130]            < 250 nM
 5  CCN(C(=O)C(=O)O[C@@H](C)[C@H]1CC[C@H]2[C@@H]3CC=C4C[C@@H](O)CC[C@]4(C)[C@H]3CC[C@]12C)C(C)C [Example 197]            < 250 nM
 6  Cc1ccnc(CC[C@@H](C)[C@H]2CC[C@H]3[C@@H]4CC=C5C[C@@H](O)CC[C@]5(C)[C@H]4CC[C@]23C)n1 [Example 191]            < 250 nM
 7  CON(C(=O)CC[C@@H](C)[C@H]1CC[C@H]2[C@@H]3CC=C4C[C@@H](O)CC[C@]4(C)[C@H]3CC[C@]12C)[C@H](C)CO [Example 71]      250 to 1000 nM
 8  CON(CCN)C(=O)CC[C@@H](C)[C@H]1CC[C@H]2[C@@H]3CC=C4C[C@@H](O)CC[C@]4(C)[C@H]3CC[C@]12C [Example 64]      250 to 1000 nM
 9  COc1ccccc1N1CCN(C(=O)CC[C@@H](C)[C@H]2CC[C@H]3[C@@H]4CC=C5C[C@@H](O)CC[C@]5(C)[C@H]4CC[C@]23C)CC1 [Example 624]            < 250 nM
10  C[C@H](CCC(=O)N1CCN(C)C(=O)C1)[C@H]1CC[C@H]2[C@@H]3CC=C4C[C@@H](O)CC[C@]4(C)[C@H]3CC[C@]12C [Example 361]      250 to 1000 nM
11  C[C@H](Oc1ccncc1)[C@H]1CC[C@H]2[C@@H]3CC=C4C[C@@H](O)CC[C@]4(C)[C@H]3CC[C@]12C [Example 379]      250 to 1000 nM

====

target: SREBP-2 (Homo sapiens (Human)); test: In vitro assay SREBP-2: PathHunter U2OS SREBP-2 Nuclear Translocation Cell Line, U18666A-stimulated; format: cell-based; details: PathHunter U2OS SREBP-2 nuclear translocation cells, U18666A 10 μM, overnight (16 hours)
pIC50: −log10 of the molar value.
Readings of pIC50 for the listed compounds

compound	systemUnderTest	pIC50
C[C@H](CCC(=O)N1CCN(c2ccn(C3CC3)c2)CC1)[C@H]1CC[C@H]2[C@@H]3CC=C4C[C@@H](O)CC[C@]4(C)[C@H]3CC[C@]12C [Example 516]	SREBP-2 (Homo sapiens (Human))	> 6.60
CC[C@](O)(CC[C@@H](C)[C@H]1CC[C@H]2[C@@H]3CC=C4C[C@@H](O)CC[C@]4(C)[C@H]3CC[C@]12C)C(F)(F)F [Example 22]	SREBP-2 (Homo sapiens (Human))	6.00 to 6.60
C[C@H](CCC(=O)N1CCC(C(NS(C)(=O)=O)C(F)(F)F)CC1)[C@H]1CC[C@H]2[C@@H]3CC=C4C[C@@H](O)CC[C@]4(C)[C@H]3CC[C@]12C (some centres unmarked) [Example 476]	SREBP-2 (Homo sapiens (Human))	> 6.60
C[C@H](CCC(=O)N1CCC([C@H](O)C(F)(F)F)CC1)[C@H]1CC[C@H]2[C@@H]3CC=C4C[C@@H](O)CC[C@]4(C)[C@H]3CC[C@]12C [Example 468]	SREBP-2 (Homo sapiens (Human))	> 6.60
CC(=O)N1C[C@@H]2CN(C(=O)CC[C@@H](C)[C@H]3CC[C@H]4[C@@H]5CC=C6C[C@@H](O)CC[C@]6(C)[C@H]5CC[C@]34C)C[C@@H]2C1 [Example 318]	SREBP-2 (Homo sapiens (Human))	6.00 to 6.60
CC(=O)N1CCN(C(=O)CC[C@@H](C)[C@H]2CC[C@H]3[C@@H]4CC=C5C[C@@H](O)CC[C@]5(C)[C@H]4CC[C@]23C)CC1 [Example 3]	SREBP-2 (Homo sapiens (Human))	> 6.60
C[C@H](COc1cc(CO)ccn1)[C@H]1CC[C@H]2[C@@H]3CC=C4C[C@@H](O)CC[C@]4(C)[C@H]3CC[C@]12C [Example 258]	SREBP-2 (Homo sapiens (Human))	> 6.60
C[C@H](COc1ncccc1CO)[C@H]1CC[C@H]2[C@@H]3CC=C4C[C@@H](O)CC[C@]4(C)[C@H]3CC[C@]12C [Example 257]	SREBP-2 (Homo sapiens (Human))	> 6.60
C[C@H](CCC(=O)N1CCN(C(=O)c2cnccn2)[C@@H](C)C1)[C@H]1CC[C@H]2[C@@H]3CC=C4C[C@@H](O)CC[C@]4(C)[C@H]3CC[C@]12C [Example 568]	SREBP-2 (Homo sapiens (Human))	> 6.60
Cc1ccncc1O[C@@H](C)[C@H]1CC[C@H]2[C@@H]3CC=C4C[C@@H](O)CC[C@]4(C)[C@H]3CC[C@]12C [Example 433]	SREBP-2 (Homo sapiens (Human))	6.00 to 6.60
C[C@H](CCC(=O)N1CCN(c2cc(N(C)C)ncn2)CC1)[C@H]1CC[C@H]2[C@@H]3CC=C4C[C@@H](O)CC[C@]4(C)[C@H]3CC[C@]12C [Example 663]	SREBP-2 (Homo sapiens (Human))	> 6.60
